- measurement-target: T1, human CD28 (human, UniProt P10747 19-220, On cells CD28 is a disulfide linked homodimer and a glycoprotein; one copy of the chain is given.)
- T1 construct: also called T-cell specific surface glycoprotein CD28
- T1 sequence (P10747 19-220 limits assumed): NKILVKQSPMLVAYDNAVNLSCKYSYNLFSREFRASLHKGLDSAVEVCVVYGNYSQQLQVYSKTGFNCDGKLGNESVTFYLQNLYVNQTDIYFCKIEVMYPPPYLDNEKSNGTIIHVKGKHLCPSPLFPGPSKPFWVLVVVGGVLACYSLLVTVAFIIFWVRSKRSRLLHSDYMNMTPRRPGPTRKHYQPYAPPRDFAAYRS
- test-details: flow cytometry, PE-conjugated antibody on fresh human peripheral blood cells, CD3/CD28 gating
reported-metric: MFI CD28+ population

| binder | reported-metric | numeric-value |
| --- | --- | --- |
| exemplary anti-CD28 antibody AB2 (antibody, V domains shown, Mouse hybridoma monoclonal antibody; also called antibody 2; clone 2) VH: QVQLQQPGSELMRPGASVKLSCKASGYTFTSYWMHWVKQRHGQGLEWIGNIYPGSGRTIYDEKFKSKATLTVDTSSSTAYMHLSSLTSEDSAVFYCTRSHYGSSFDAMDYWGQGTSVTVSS VL: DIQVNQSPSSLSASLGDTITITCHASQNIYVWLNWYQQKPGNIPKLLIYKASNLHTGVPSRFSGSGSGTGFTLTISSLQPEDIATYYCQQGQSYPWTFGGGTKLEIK | MFI CD28+ population | 13100 |
| exemplary anti-CD28 antibody AB1 (antibody, V domains shown, Mouse hybridoma monoclonal antibody; also called antibody 1; clone 1) VH: QVHLQQSATELARPGASVKMSCKASGYTFTSYTMHWVKQRPGQGLEWIGYIDPGSGYSEFNHKFKDKSTLTADKSSSTAYMQLISLTSEDSAVYYCARRQDNSGYDSFDYWGQGTTLTVSS VL: DIQMTQSPASLSVSVGETVTITCRTSENIYSNLAWYQQKQGKSPQLLVYAATNLADGVSSRFSGSGSGIQYSLKINSLQSEDFGSYYCQHFWGIPWTFGGGTKLEIK | MFI CD28+ population | 12600 |
| exemplary anti-CD28 antibody AB7 (antibody, V domains shown, Mouse hybridoma monoclonal antibody; Conjugated to PE in the staining assays; also called antibody 7; clone 7) VH: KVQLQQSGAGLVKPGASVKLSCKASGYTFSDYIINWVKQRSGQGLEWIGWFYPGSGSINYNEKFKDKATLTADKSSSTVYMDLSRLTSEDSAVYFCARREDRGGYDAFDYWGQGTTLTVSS VL: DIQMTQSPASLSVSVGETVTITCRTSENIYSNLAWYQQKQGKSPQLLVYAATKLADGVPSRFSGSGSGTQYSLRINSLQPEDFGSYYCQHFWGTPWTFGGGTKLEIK | MFI CD28+ population | 16200 |

Data origin: patent US20250052767A1
